# test target: T1, His-tagged cynomolgus monkey TIGIT (Acro Biosystems #TIT-05223) (cynomolgus monkey, UniProt A0A7N9I9V4 89-209)
# T1 construct: Bought protein; also called cyno TIGIT; cynomolgus TIGIT; not shown: His tag
# T1 sequence (A0A7N9I9V4 entry or part of it): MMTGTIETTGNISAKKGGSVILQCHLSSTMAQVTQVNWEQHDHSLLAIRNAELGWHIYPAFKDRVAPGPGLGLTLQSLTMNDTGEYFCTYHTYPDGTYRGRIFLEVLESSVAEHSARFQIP
# assay info: SPR (Carterra LSA), scFv-Fc captured, His-TIGIT analyte
pKd: −log10 of the molar value.

{"columns": ["binder", "pKd"],
 "data": [
  ["43586p1.2.C9 (scFv, V domains shown) VH: EVQLLESGGGLVQPGGSLRLSCAASGFTFDDYVMSWVRQAPGKGLEWVSLINWNGDKTYYADSVKGRFTISRDNSKNTLYLQMNSLRAEDTAIYYCAKHWIVFQYGMDVWGQGTTVTVSS VL: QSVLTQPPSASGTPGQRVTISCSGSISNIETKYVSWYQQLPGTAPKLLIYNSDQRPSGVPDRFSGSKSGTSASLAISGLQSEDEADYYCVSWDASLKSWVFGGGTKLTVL", 8.06],
  ["43586p1.2.E6 (scFv, V domains shown) VH: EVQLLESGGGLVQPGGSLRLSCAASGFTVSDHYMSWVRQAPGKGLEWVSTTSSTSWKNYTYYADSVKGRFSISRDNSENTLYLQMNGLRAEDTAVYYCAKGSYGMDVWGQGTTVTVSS VL: QSVLTQPPSASGTPGQRVTISCSGSNFNIGTKYLYWYQQLPGTAPKLLIYLDSQRPSGVPDRFSTSKSGTSASLAISGLQSEDEADYYCALWDDHLHGWVFGGGTKLTVL", 6.25]
]}
